# TARGET_DESC: F protein of RSV strain Long (infectious virus) (human respiratory syncytial virus …, UniProt P12568 26-574)
# Sequence (P12568 26-574): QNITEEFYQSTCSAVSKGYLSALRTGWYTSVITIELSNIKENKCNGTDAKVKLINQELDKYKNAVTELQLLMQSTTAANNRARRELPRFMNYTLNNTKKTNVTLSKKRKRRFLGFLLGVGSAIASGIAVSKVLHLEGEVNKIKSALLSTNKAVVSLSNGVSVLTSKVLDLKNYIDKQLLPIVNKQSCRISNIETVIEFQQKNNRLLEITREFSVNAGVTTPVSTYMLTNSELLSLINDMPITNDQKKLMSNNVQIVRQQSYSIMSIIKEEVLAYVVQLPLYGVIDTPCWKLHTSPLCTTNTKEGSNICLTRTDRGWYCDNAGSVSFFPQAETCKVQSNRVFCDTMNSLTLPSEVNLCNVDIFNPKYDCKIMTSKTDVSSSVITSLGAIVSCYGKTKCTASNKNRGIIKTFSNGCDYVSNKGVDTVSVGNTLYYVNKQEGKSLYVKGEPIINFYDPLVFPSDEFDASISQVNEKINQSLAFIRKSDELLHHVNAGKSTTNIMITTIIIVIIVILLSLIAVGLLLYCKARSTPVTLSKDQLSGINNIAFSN
# METHOD_DESCRIPTION: cell-based or functional assay
Response field label: string, one of Fulfilled (Neutralization IC50, plaque-reduction assay strictly below 0.02 µg/mL) or Not fulfilled.

Field: example entries. Status: answers known.
BINDER	ASSIGNED_CATEGORY
hRSV141 (antibody, V domains shown) VH: QVQLVQSGAEVKKPGASVKVSCKASGYTFTNYYMHWVRQAPGQGLEWMGWINPNRGGTNYAQKFQGRVTMTLDTSISTAYIELSRLRSDDTAVYYCARDLTLGTDYWGQGTLVTVSS VL: QAVVTQPASVFGFPGQSITISCTGTSSDVGGYNYVSWYQQRPGKAPKLMIYEVSNRPSGVSNRFSGSKSGNTASLTISGLQAEDEADYYCNSYTSSNSYVFGTGTKVTVL	Not fulfilled
hRSV75 (antibody, V domains shown) VH: EVQLVESGGGLVKPGGSLRLSCAASGFTFRSYSMNWVRQAPGKGLEWVSSITSSSSYIDYADSVKGRFTISRDNAKNSLYLQMNSLRAEDTAVYYCARAYCGGDCSVDHFQHWGQGTLVTVSS VL: QSVLTQPPSVSGAPGQRVTISCTGSSSNIGAGYDVHWYQHLPGTAPKLLIYVNSNRPSGVPDRFSASKSGTSASLAITGLQAEDEADYYCQSYDKSLSGFYVFGTGTKVTVL	Fulfilled
hRSV106 (antibody, V domains shown) VH: QITLKESGPTLVKPTQTLTLTCTFSGFSLTTRGVGVAWIRQPPGKALEWLALIYWDDDKRYRSSPKGRLTITKDNSKNQVVLIMTNMDPVDTATYYCAHAMDDSGSYYVGLSKDPHFDSWGHGTLVTVSS VL: SYELTQPPSVSVSPGQTASITCSGDVLFNKFASWYQQKPGQSPVLVIYQDSKRPSGIPERFSGSNSGNTATLTIRGTQAMDEADYYCQARGSTAAHVIFGGGTKVTVL	Not fulfilled
D25 (antibody, V domains shown) VH: QVQLVQSGAEVKKPGSSVMVSCQASGGPLRNYIINWLRQAPGQGPEWMGGIIPVLGTVHYAPKFQGRVTITADESTDTAYIHLISLRSEDTAMYYCATETALVVSTTYLPHYFDNWGQGTLVTVSS VL: DIQMTQSPSSLSAAVGDRVTITCQASQDIVNYLNWYQQKPGKAPKLLIYVASNLETGVPSRFSGSGSGTDFSLTISSLQPEDVATYYCQQYDNLPLTFGGGTKVEIKR	Fulfilled

Now for another entry.
In: A record lists hRSV20 (antibody, V domains shown) VH: QVQLVESGGGLVQPGRSLRLSCAASGFTFDDYAMHWVRQAPGRGLEWVSGISWNSGIAVYADSVKGRFTISRDNAKKSLYLQINSLRAEDTALYYCVKDNYASGSYSSYYYYYGLDLWGQGTLVTVSS VL: EIVMTQSPATLSVSPGERATLSCRASQSIISNLAWYQQKPGQAPRLLIYGVSTRATGIPARFSGSGSDTEFTLSISSLQSEDFAVYYCQQYNNWPITFGQGTRLEIK . Is its Neutralization IC50, plaque-reduction assay below 0.02 µg/mL?
Out: Fulfilled

These entries and their values trace back to patent US20190367586A1.
